biological target: Human recombinant protein tyrosine phosphatase (PTP1B) (Homo sapiens); assay: Kinetic study against PTP1B (Lineweaver–Burk and Dixon plots); type: biochemical; details: determined from Dixon plots; read-out: PTP1B Ki
ENDPOINT_NAME: Ki (nM)
Just the number please, in nM, no unit attached.

Enquiry: So what's the measured Ki for this one? Oc1c(O)c(Br)c(COCc2c(Br)c(O)c(O)c(Br)c2Br)c(Br)c1Br [Compound 3]
Return: 2250

====

target: yeast α-glucosidase (Saccharomyces cerevisiae, UniProt P53341); construct: purchased Sigma-Aldrich Co. (St. Louis, MO, USA); experiment: biochemical; assay type: biochemical; conditions: mean ± SD, n = 3; read-out: α-Glucosidase IC50
Sequence (P53341 whole entry): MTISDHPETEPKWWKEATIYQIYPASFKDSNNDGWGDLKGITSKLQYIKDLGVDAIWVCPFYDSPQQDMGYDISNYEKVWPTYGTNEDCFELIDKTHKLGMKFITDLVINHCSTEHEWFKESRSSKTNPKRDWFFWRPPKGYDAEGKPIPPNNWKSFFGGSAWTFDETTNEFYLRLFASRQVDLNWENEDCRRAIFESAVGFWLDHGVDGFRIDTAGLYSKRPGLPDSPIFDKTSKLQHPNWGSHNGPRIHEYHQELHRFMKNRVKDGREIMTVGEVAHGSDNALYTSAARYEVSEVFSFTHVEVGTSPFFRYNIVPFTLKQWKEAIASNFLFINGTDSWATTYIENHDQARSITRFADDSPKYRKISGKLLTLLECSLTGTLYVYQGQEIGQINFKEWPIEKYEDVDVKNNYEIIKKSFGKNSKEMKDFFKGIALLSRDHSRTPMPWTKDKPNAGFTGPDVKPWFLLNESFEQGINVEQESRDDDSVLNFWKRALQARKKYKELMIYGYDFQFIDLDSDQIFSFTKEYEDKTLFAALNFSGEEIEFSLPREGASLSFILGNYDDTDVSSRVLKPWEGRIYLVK
ENDPOINT_NAME: IC50 (µM)
Give just the number in µM; leave the unit off.

Enquiry: Recorded IC50 for Oc1c(O)c(Br)c(COCc2c(Br)c(O)c(O)c(Br)c2Br)c(Br)c1Br [Compound 3] , please?
Return: 1.92

====

biological target: Human recombinant protein tyrosine phosphatase (PTP1B) (Homo sapiens, UniProt P18031); test: PTP1B inhibitory assay with pNPP substrate; format: biochemical
Sequence (P18031 whole entry): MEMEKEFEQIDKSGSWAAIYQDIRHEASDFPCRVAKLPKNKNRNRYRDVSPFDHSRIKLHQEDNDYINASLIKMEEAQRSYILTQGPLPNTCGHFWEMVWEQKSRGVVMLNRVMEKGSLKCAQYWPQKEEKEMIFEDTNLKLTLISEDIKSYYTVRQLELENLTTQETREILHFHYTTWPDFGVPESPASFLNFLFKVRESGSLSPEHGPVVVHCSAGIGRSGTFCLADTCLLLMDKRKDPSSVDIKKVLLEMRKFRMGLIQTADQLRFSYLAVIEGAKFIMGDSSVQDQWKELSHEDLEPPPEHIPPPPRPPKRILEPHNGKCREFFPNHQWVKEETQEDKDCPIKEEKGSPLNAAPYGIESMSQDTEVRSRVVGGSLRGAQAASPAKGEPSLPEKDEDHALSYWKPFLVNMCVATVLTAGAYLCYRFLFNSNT
ENDPOINT_NAME: pIC50
Scale for pIC50: -log10 of concentration given in mol/L; no unit attached.

Enquiry: Lab request: please report pIC50 under test system Human recombinant protein tyrosine phosphatase (PTP1B) (Homo sapiens, UniProt P18031) for OCc1c(Br)c(O)c(O)c(Br)c1Br
Return: 5.11

Enquiry: Query COCc1c(Br)c(O)c(O)c(Br)c1Br next
Return: 5.07

====

target: Human recombinant protein tyrosine phosphatase (PTP1B) (Homo sapiens); test: PTP1B inhibitory assay with pNPP substrate; format: biochemical; conditions: mean ± SD, n = 3; read-out: PTP1B IC50
ENDPOINT_NAME: pIC50
The value called pIC50 is obtained by taking minus log10 of the concentration in mol/L.

Enquiry: Provide value of pIC50 for this record tested with Human recombinant protein tyrosine phosphatase (PTP1B) (Homo sapiens): Oc1c(O)c(Br)c(COCc2c(Br)c(O)c(O)c(Br)c2Br)c(Br)c1Br
Return: 5.28

====

target: yeast α-glucosidase (Saccharomyces cerevisiae); construct: purchased Sigma-Aldrich Co. (St. Louis, MO, USA); experiment: Kinetic study against α-glucosidase (Lineweaver–Burk and Dixon plots); type: biochemical; conditions: determined from Dixon plots; read-out: α-Glucosidase Ki
ENDPOINT_NAME: pKi
FYI, pKi means -log10 of a concentration in mol per litre.

Enquiry: # input molecule: Oc1c(O)c(Br)c(COCc2c(Br)c(O)c(O)c(Br)c2Br)c(Br)c1Br [Compound 3] ; wanted: its pKi
Return: 6.68
